Field: Mean % WT Binding. Provide a value for each of the binders that follow.
Target: human CD33 variant P48H (human, UniProt P20138 18-364)
Sequence (P20138 18-364 P48H limits assumed): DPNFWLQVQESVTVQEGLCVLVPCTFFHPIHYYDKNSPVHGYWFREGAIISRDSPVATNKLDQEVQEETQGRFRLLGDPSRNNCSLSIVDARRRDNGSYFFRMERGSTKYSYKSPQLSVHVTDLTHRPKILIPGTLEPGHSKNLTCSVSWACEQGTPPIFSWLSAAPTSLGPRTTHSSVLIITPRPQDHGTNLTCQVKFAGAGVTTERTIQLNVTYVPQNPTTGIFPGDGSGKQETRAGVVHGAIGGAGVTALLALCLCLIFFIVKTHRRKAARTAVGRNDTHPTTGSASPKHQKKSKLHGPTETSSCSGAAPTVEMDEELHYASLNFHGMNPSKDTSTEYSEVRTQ
Test: flow cytometry, IgG on cells expressing the mutant

Here is how some binders turned out for Mean % WT Binding.
Refmab #1 (antibody, human IgG1, V domains shown, Tested in IgG format; human IgG1 (Absolute Antibody hP67.6, Cat. No. Ab00283-10.0); also called hP67.6) VH: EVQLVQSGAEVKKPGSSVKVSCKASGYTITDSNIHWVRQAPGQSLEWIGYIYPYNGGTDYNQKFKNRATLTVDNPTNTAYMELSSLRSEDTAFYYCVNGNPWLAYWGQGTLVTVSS VL: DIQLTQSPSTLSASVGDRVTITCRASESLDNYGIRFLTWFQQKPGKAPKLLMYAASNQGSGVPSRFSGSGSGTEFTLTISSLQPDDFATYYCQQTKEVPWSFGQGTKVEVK :: 97.4 % of WT
Refmab #4 (antibody, human IgG1, V domains shown, Tested in IgG format; human IgG1 Fc silent (PG-LALA)) VH: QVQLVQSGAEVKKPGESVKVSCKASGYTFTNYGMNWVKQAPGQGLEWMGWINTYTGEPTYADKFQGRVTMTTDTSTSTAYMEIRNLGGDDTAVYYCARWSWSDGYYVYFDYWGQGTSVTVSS VL: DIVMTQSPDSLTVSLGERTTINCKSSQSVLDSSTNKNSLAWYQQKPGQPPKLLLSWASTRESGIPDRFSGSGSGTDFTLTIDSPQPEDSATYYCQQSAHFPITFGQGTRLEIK :: 2.9 % of WT

Then this binder:
Fill in the blank: the reported Mean % WT Binding of Refmab #2 (antibody, human IgG1, V domains shown, Tested in IgG format; human IgG1 Fc silent (PG-LALA)) VH: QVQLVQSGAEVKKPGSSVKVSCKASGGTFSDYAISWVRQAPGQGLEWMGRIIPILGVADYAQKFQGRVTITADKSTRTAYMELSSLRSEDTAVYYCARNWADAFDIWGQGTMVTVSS VL: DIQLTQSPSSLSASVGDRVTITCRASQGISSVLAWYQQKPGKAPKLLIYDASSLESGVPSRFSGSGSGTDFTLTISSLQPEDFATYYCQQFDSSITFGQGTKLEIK is ____.
81.9 % of WT
